test system: P12-Ichikawa; test: cell viability relative to DMSO control; higher = less cytotoxic; conditions: RPMI 5 mM glucose + 10% dialyzed FBS; 48 h; 0.00702 µM
// values below are reported cell viability
MEASURED_ATTRIBUTE: cell viability

Cc1ccccc1C(C(=O)NC1CCCCC1)N(C(=O)Cn1ccnc1C)c1cccc(F)c1 (centres undefined) :: 104%
COc1cnc(N[S+](=O)([O-])c2ccc(N)cc2)nc1 :: 122%
OC(=O)C1=CC=C(NC2=NC3=C(C\N=C(/C4=CC(=CC=C34)Cl)C5=C(F)C=CC=C5F)C=N2)C=C1 :: 96.2%
C/C=C1\NC(=O)[C@H]2CSSCC/C=C\[C@H](CC(=O)N[C@H](C(C)C)C(=O)N2)OC(=O)[C@H](C(C)C)NC1=O :: 108%
